Molecular target: Replicase polyprotein 1ab (Severe acute respiratory syndrome coronavirus 2) (UniProt P0DTD1)
Assay: Inhibition of SARS Cov-2 papain-like protease extracted form Escherichia coli Rosetta (DE3) using fluorogenic substrate RLRGG-AMC assessed as inhibition rate by measuring fluorescent signal at 4 uM incubated for 30 mins relative to control
Label Condition met when inhibition is at or above 30%; otherwise label Condition not met.

INSERT INTO assay_data (molecule, assigned_category) VALUES
  ('Cc1ccc(NC(=O)c2cc(Br)cnc2Cl)cc1C(=O)N[C@H](C)c1cccc2ccccc12', 'Condition not met'),
  ('C[C@@H](NC(=O)c1cc(N)ccc1O)c1cccc2ccccc12', 'Condition not met'),
  ('Cc1ccc(NC(=O)c2ccnc(O)c2)cc1C(=O)N[C@H](C)c1cccc2ccccc12', 'Condition met'),
  ('COC(=O)Cc1ccc(CNc2ccc(C)c(C(=O)N[C@H](C)c3cccc4ccccc34)c2)cc1', 'Condition not met'),
  ('CC[C@@H](C)[C@@H](NC(=O)c1ccc(-c2cccc([C@@H](C)NC(=O)c3cc(N)ccc3C)c2)s1)C(=O)OC', 'Condition met'),
  ('Cc1ccc(NC(=O)c2ccc(Cl)s2)cc1C(=O)N[C@H](C)c1cccc2ccccc12', 'Condition not met'),
  ('COC(=O)[C@@H](CCC(=O)OC(C)(C)C)NCc1ccc(-c2cccc([C@@H](C)NC(=O)c3cc(N)ccc3C)c2)s1 (racemic)', 'Condition met'),
  ('Cc1ccc(N)cc1C(=O)N[C@H](C)c1cccc2ccccc12', 'Condition met'),
  ('COc1ccc([N+](=O)[O-])c(C(=O)Nc2ccc(C)c(C(=O)N[C@H](C)c3cccc4ccccc34)c2)c1', 'Condition met'),
  ('Cc1ccc(NC(=O)Oc2ccc([N+](=O)[O-])cc2)cc1C(=O)N[C@H](C)c1cccc2ccccc12', 'Condition not met');

====

The reader will find reported IC50 values listed item by item below.
Target: Replicase polyprotein 1ab (Severe acute respiratory syndrome coronavirus 2, UniProt P0DTD1)
value.type: IC50 (µM)

INSERT INTO assay_data (compound, value_type, unit_spec, value_relation_sign, endpoint_result) VALUES
  ('COC(=O)Cc1ccc(CNc2ccc(C)c(C(=O)N[C@H](C)c3cccc4ccccc34)c2)cc1', 'IC50', 'µM', '=', 2.91),
  ('COC(=O)[C@@H](CCC(=O)OC(C)(C)C)NCc1ccc(-c2cccc([C@@H](C)NC(=O)c3cc(N)ccc3C)c2)s1 (racemic)', 'IC50', 'µM', '=', 4.71),
  ('CC[C@@H](C)[C@@H](NC(=O)c1ccc(-c2cccc([C@@H](C)NC(=O)c3cc(N)ccc3C)c2)s1)C(=O)OC', 'IC50', 'µM', '=', 2.72),
  ('CCOC(=O)CCCNCc1ccc(-c2cccc([C@@H](C)NC(=O)c3cc(NC4CNC4)ccc3C)c2)s1', 'IC50', 'µM', '=', 0.25),
  ('Cc1ccc(NC2CNC2)cc1C(=O)N[C@H](C)c1cccc(-c2ccc(CN3CC[C@@H](C(=O)O)C3)s2)c1', 'IC50', 'µM', '=', 0.27),
  ('Cc1ccc(NC(=O)c2ccc(Cl)s2)cc1C(=O)N[C@H](C)c1cccc2ccccc12', 'IC50', 'µM', '>', 20),
  ('CCOC(=O)[C@@H]1CCN(Cc2ccc(-c3cccc([C@@H](C)NC(=O)c4cc(NC5CNC5)ccc4C)c3)s2)C1', 'IC50', 'µM', '=', 1.94);

Origin of the recorded values: ChEMBL document CHEMBL6103536
